This collection of values is drawn from ChEMBL document CHEMBL1961873.

# Tested on: Tyrosine-protein kinase ABL1 (Homo sapiens), P00519 [H396P]
# statedConditions: at 0.1 µM
measuredQuantity: inhibition (%)

>  <smilesText>
CN(C)c1cc2c(Nc3ccc4c(cnn4Cc4ccccc4)c3)ncnc2cn1

>  <measuredQuantity>
inhibition

>  <observedMeasurement>
0.57

$$$$
>  <smilesText>
NC(=O)c1sc(-n2cnc3ccccc32)cc1OCc1ccccc1Br

>  <measuredQuantity>
inhibition

>  <observedMeasurement>
4.21

$$$$
>  <smilesText>
Cc1ccc(O)cc1Nc1ccnc2ccc(S(C)(=O)=O)cc12

>  <measuredQuantity>
inhibition

>  <observedMeasurement>
94.8

$$$$
>  <smilesText>
CN(c1ccc(NC(=O)Nc2ccc(OC(F)(F)F)cc2)cc1)c1ccnc(Nc2cccc(S(N)(=O)=O)c2)n1

>  <measuredQuantity>
inhibition

>  <observedMeasurement>
47.6

$$$$
>  <smilesText>
NS(=O)(=O)c1cccc(Nc2cc(-c3ccc(F)cc3)n[nH]2)c1

>  <measuredQuantity>
inhibition

>  <observedMeasurement>
5.72

$$$$
>  <smilesText>
Nc1nccc(-c2c(-c3ccc(F)cc3)nn3cc(C(F)(F)F)ccc23)n1

>  <measuredQuantity>
inhibition

>  <observedMeasurement>
0.65

$$$$
>  <smilesText>
COc1cccc(-n2ncc3c(N/N=C/c4ccc(S(C)(=O)=O)cc4)ncnc32)c1

>  <measuredQuantity>
inhibition

>  <observedMeasurement>
85.2

$$$$
>  <smilesText>
Cc1ccc(Nc2ccnc(Nc3cccc(C(N)=O)c3)n2)cc1O

>  <measuredQuantity>
inhibition

>  <observedMeasurement>
76.5

$$$$
>  <smilesText>
Cc1ccc2c(-c3ccnc(Nc4cccc(C(F)(F)F)c4)n3)c(-c3ccccc3)nn2n1

>  <measuredQuantity>
inhibition

>  <observedMeasurement>
11.3

$$$$
>  <smilesText>
CN(C)CCCn1c(-c2nonc2N)nc2cnccc21

>  <measuredQuantity>
inhibition

>  <observedMeasurement>
2.64

$$$$

---

# testTarget: Proto-oncogene tyrosine-protein kinase Src (Homo sapiens);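 note: values are averaged inhibition of Src, tested against the GSK PKIS kinase inhibitor set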
# statedConditions: at 0.1 µM
Parameter: inhibition. Scope: all listed entries.

>  <smilesText>
Nc1nccc(-c2c(-c3ccc(F)cc3)ncn2CCCN2CCOCC2)n1

>  <inhibition, %>
-0.33

$$$$
>  <smilesText>
COc1ccc2ncnc(Nc3ccc(OCc4ccccc4)cc3)c2c1

>  <inhibition, %>
2.84

$$$$
>  <smilesText>
NS(=O)(=O)c1ccc(NC=C2C(=O)Nc3ccc4ncsc4c32)cc1

>  <inhibition, %>
14.2

$$$$
>  <smilesText>
CN(C)C(=O)O[C@@H]1CN[C@@H](C#Cc2cc3ncnc(Nc4ccc(OCc5cccc(F)c5)c(Cl)c4)c3s2)C1

>  <inhibition, %>
3.94

$$$$
>  <smilesText>
Cc1cc(O)cc(C)c1/C=C/c1cncc(C(=O)N(C)C)c1

>  <inhibition, %>
1.66

$$$$
>  <smilesText>
COc1cc(/C=N/Nc2ncnc3c2cnn3C(C)C)ccc1O

>  <inhibition, %>
20.8

$$$$
>  <smilesText>
CN(C)c1cc2c(Nc3ccc4c(cnn4Cc4ccccc4)c3)ncnc2cn1

>  <inhibition, %>
3.91

$$$$
>  <smilesText>
Cc1ccc2c(-c3ccnc(Nc4ccc5c(c4)OCCO5)n3)c(-c3ccc(C(F)(F)F)cc3)nn2n1

>  <inhibition, %>
1.69

$$$$
>  <smilesText>
COc1cccc(-n2ncc3c(N/N=C/c4ccc(C)cc4)ncnc32)c1

>  <inhibition, %>
14.2

$$$$
>  <smilesText>
O=C1Nc2ccccc2/C1=C/Nc1ccc2[nH]c(=O)[nH]c2c1

>  <inhibition, %>
5.5

$$$$

---

# testTarget: Vascular endothelial growth factor receptor 2 (Homo sapiens) (UniProt P35968)
# Sequence (P35968 whole entry): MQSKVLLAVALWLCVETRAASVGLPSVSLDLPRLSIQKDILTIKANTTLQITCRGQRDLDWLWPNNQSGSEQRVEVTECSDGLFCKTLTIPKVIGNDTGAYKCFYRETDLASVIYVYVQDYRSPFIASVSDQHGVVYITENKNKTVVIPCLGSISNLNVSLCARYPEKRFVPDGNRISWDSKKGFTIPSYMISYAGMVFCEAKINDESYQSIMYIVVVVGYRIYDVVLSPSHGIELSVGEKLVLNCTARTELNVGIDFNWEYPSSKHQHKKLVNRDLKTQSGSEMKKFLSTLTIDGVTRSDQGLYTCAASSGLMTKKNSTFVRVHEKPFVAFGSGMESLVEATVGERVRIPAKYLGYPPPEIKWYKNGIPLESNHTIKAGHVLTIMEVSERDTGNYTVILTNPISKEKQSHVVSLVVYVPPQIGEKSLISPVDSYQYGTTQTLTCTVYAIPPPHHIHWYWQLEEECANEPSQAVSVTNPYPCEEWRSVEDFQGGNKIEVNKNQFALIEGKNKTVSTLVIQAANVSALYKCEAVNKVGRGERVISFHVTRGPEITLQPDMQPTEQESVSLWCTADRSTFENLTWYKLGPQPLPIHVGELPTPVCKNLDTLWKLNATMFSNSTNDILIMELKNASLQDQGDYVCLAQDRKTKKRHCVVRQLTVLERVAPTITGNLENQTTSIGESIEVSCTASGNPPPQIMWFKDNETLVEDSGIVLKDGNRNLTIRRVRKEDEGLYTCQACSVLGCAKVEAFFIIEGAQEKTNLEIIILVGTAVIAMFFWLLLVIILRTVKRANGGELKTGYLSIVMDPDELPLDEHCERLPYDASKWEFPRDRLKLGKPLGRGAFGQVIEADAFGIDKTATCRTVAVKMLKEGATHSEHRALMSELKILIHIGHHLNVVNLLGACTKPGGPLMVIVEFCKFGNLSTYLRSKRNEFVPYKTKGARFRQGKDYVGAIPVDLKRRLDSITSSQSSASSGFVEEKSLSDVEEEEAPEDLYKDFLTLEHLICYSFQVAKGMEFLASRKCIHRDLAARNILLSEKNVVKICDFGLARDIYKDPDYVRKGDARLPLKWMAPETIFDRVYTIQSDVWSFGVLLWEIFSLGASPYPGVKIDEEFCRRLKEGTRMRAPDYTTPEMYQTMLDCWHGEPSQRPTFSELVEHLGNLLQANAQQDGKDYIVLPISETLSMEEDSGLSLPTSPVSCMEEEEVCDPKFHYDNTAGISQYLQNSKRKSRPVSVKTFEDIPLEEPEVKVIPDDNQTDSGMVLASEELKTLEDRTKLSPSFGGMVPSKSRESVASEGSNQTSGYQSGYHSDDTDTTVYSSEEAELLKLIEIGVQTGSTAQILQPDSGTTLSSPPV
# statedConditions: at 0.1 µM
# Description: GSK_PKIS: KDR mean inhibition at 0.1 uM [Nanosyn]
Parameter: inhibition. Scope: all listed entries.

>  <smilesText>
COc1ccc2ncnc(Nc3ccc(OCc4ccccc4)cc3)c2c1

>  <inhibition / %>
1.51

$$$$
>  <smilesText>
CN(C)CCCn1c(-c2nonc2N)nc2cnccc21

>  <inhibition / %>
4.41

$$$$
>  <smilesText>
CN(C)C(=O)O[C@@H]1CN[C@@H](C#Cc2cc3ncnc(Nc4ccc(OCc5cccc(F)c5)c(Cl)c4)c3s2)C1

>  <inhibition / %>
0.75

$$$$
>  <smilesText>
COc1cc(Nc2nccc(-c3cnn4ncccc34)n2)cc(OC)c1

>  <inhibition / %>
14.8

$$$$
>  <smilesText>
Cc1cc(O)cc(C)c1/C=C/c1cncc(C(=O)N(C)C)c1

>  <inhibition / %>
7.06

$$$$
>  <smilesText>
CN(C)C(=O)O[C@H]1CN[C@H](C#Cc2cc3ncnc(Nc4ccc(OCc5cccc(F)c5)c(Cl)c4)c3s2)C1

>  <inhibition / %>
4.69

$$$$
>  <smilesText>
COc1cc2ncnc(Nc3ccc(C)c(O)c3)c2cc1OC

>  <inhibition / %>
75.4

$$$$
>  <smilesText>
NS(=O)(=O)c1ccc(N/N=C2\C(=O)Nc3ccc(Cl)cc32)cc1

>  <inhibition / %>
1.7

$$$$
>  <smilesText>
Cc1ccc(C(=O)NC2CC2)cc1-c1ccc2[nH]ncc2c1

>  <inhibition / %>
-3.15

$$$$
>  <smilesText>
Cc1nc(-c2ccccc2)n2nc(NCCCN3CCOCC3)ncc12

>  <inhibition / %>
2.59

$$$$
>  <smilesText>
[O-][S+]1CCN(Cc2ccc(-c3ccc4ncnc(Nc5ccc(OCc6ccccc6)c(Cl)c5)c4c3)o2)CC1

>  <inhibition / %>
0.96

$$$$
>  <smilesText>
NS(=O)(=O)c1cccc(Nc2cc(-c3ccc(F)cc3)n[nH]2)c1

>  <inhibition / %>
5.37

$$$$
>  <smilesText>
c1ccc(Nc2ncc(-c3ccccc3)o2)cc1

>  <inhibition / %>
4.68

$$$$
>  <smilesText>
CN(c1ccc(NC(=O)Nc2ccc(OC(F)(F)F)cc2)cc1)c1ccnc(Nc2cccc(S(N)(=O)=O)c2)n1

>  <inhibition / %>
78.8

$$$$
>  <smilesText>
Cc1ccc(Nc2ccnc(Nc3cccc(C(N)=O)c3)n2)cc1O

>  <inhibition / %>
76.9

$$$$
>  <smilesText>
CN1CCN(C(=O)c2ccc(NC(=O)Nc3ccc(N(C)c4ccnc(Nc5ccc(CS(C)(=O)=O)cc5)n4)cc3)cc2)CC1

>  <inhibition / %>
21.4

$$$$
>  <smilesText>
COC(=O)c1ccc2c(c1)C(=Cc1cc(Br)c(O)c(Br)c1)C(=O)N2

>  <inhibition / %>
3.9

$$$$
>  <smilesText>
COc1cc2ncnc(Nc3ccc4c(cnn4Cc4ccccc4)c3)c2cc1OC

>  <inhibition / %>
6.63

$$$$
>  <smilesText>
Cc1ccc2c(-c3ccnc(Nc4cccc(C(F)(F)F)c4)n3)c(-c3ccccc3)nn2n1

>  <inhibition / %>
17.7

$$$$
>  <smilesText>
CCS(=O)(=O)c1ccc(OC)c(Nc2nccc(N(C)c3ccc4c(C)n[nH]c4c3)n2)c1

>  <inhibition / %>
78.7

$$$$
>  <smilesText>
COc1cc2ncn(-c3cc(OCc4ccccc4S(C)(=O)=O)c(C#N)s3)c2cc1OC

>  <inhibition / %>
25.6

$$$$
>  <smilesText>
c1ccc(Cc2nc3ccc(Nc4ncnc5ccccc45)cc3[nH]2)cc1

>  <inhibition / %>
2.38

$$$$
>  <smilesText>
Nc1nccc(C#Cc2cncnc2Nc2ccc(OCc3cccc(F)c3)c(Cl)c2)n1

>  <inhibition / %>
6.4

$$$$
>  <smilesText>
COc1ccc(-c2nn3ncccc3c2-c2ccnc(Nc3cccc(C(F)(F)F)c3)n2)cc1

>  <inhibition / %>
3.64

$$$$
>  <smilesText>
COc1cccc(-n2ncc3c(N/N=C/c4ccc(C)cc4)ncnc32)c1

>  <inhibition / %>
6.36

$$$$
>  <smilesText>
NS(=O)(=O)c1ccc(-c2cc3ccncc3cc2OCc2ccccc2)cc1

>  <inhibition / %>
4.82

$$$$
>  <smilesText>
COC(=O)c1cncc(/C=C/c2c(C)cc(O)cc2C)c1

>  <inhibition / %>
2.37

$$$$
>  <smilesText>
CCn1c(-c2nonc2N)nc2ccc(F)cc21

>  <inhibition / %>
5.19

$$$$
>  <smilesText>
C[C@@H](Oc1cc(-n2cnc3ccc(OC[C@@H](O)CO)cc32)sc1C(N)=O)c1ccccc1Cl

>  <inhibition / %>
1.39

$$$$
>  <smilesText>
NC(=O)c1cccc(Nc2nccc(Nc3cccc(F)c3)n2)c1

>  <inhibition / %>
5.1

$$$$
>  <smilesText>
Cc1cc(Cl)cc2c1NC(=O)C2=NNc1ccc(S(N)(=O)=O)cc1

>  <inhibition / %>
1.84

$$$$
>  <smilesText>
NS(=O)(=O)c1ccc(Nc2cc(-c3cccc(O)c3)n[nH]2)cc1

>  <inhibition / %>
9.9

$$$$
>  <smilesText>
O=S(=O)(CCOCc1ccc(-c2ccc3ncnc(Nc4ccc(OCc5cccc(F)c5)c(Cl)c4)c3c2)o1)c1ccccc1

>  <inhibition / %>
1.71

$$$$
>  <smilesText>
Cc1ccc(O)cc1Nc1ccnc2ccc(S(C)(=O)=O)cc12

>  <inhibition / %>
70.1

$$$$
>  <smilesText>
Oc1cccc(-c2nc(-c3ccccc3)[nH]c2-c2ccncc2)c1

>  <inhibition / %>
30.8

$$$$
>  <smilesText>
FC(F)(F)c1ccc(-c2nn3ncccc3c2-c2ccnc(Nc3ccc4c(c3)OCCO4)n2)cc1

>  <inhibition / %>
-0.31

$$$$
>  <smilesText>
Cc1ccc2c(c1)/C(=N/Nc1ccc(S(N)(=O)=O)cc1)C(=O)N2

>  <inhibition / %>
2.62

$$$$
>  <smilesText>
Cc1ccc(NC(=O)CC2CC2)cc1-c1ccc(C(=O)NCC2CC2)cc1

>  <inhibition / %>
9.88

$$$$
>  <smilesText>
Cc1ccc2c(-c3ccnc(Nc4ccc5c(c4)OCCO5)n3)c(-c3ccc(C(F)(F)F)cc3)nn2n1

>  <inhibition / %>
-0.67

$$$$
>  <smilesText>
CCS(=O)(=O)c1ccc(OC)c(Nc2ncc(-c3cccc(OC)c3)o2)c1

>  <inhibition / %>
48.4

$$$$
